TARGET OF ASSAY: human GPR120 (Homo sapiens (Human))
Sequence (Q5NUL3 whole entry): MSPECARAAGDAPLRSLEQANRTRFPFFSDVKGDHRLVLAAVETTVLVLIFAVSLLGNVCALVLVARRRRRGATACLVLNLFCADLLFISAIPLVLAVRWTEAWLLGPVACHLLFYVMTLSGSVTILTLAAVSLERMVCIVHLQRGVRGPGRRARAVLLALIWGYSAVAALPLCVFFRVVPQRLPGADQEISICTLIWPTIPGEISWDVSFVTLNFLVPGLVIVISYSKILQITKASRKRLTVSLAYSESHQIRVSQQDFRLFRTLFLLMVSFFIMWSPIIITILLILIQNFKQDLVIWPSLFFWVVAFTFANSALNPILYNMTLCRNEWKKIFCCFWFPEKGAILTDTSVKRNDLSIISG
ASSAY NOTES: GPR120 pERK AlphaScreen SureFire Assay (human)
EXPERIMENTAL CONTEXT: CHO cells stably transfected with short form of human GPR120
MEASUREMENT NAME: EC50 (nM)

Look over these answered cases.
{"columns": ["QUERY SMILES", "EC50 / nM"],
 "data": [
  ["C[C@]1(CCCOCC(=O)O)C[C@H](c2cccc(Oc3ccccc3)c2)C1", 150],
  ["O=C(O)COCCC[C@H]1C[C@@H](c2cccc(Oc3ccccc3)c2)C1", 420]
]}

(P) O=C(O)CO[C@H]1C[C@@H](c2ccc(-c3cc(Oc4ccccn4)ccc3F)cc2)C1
(Q) Cc1ccc(Oc2ccc(F)c(-c3ccc([C@H]4C[C@@H](OCC(=O)O)C4)cc3)c2)cc1
(R) O=C(O)CO[C@H]1C[C@@H](c2ccc(-c3cc(Oc4ccccc4)ccc3F)cc2)C1
QUERY: Number of compounds to sort: 3. Sort criterion: EC50, ascending. Could you list the labels in the order requested?
RESULT: R, P, Q
(R: 170 nM, P: 490 nM, Q: 710 nM)
